Target: Cyno CD3εδ-Fc (cynomolgus) (UniProt Q95LI8)
Sequence (chain, as listed by the source mutant, chain 1 of 2): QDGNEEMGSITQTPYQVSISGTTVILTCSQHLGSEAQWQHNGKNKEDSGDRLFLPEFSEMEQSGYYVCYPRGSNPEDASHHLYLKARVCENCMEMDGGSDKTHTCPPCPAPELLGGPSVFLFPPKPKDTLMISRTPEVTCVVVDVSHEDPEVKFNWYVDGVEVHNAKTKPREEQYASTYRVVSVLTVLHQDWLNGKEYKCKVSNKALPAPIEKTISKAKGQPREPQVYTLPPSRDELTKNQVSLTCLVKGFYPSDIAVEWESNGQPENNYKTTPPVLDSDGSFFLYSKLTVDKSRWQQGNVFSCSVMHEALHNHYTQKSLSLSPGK
Sequence (Q95LI8 22-105, stated change not applied, chain 2 of 2): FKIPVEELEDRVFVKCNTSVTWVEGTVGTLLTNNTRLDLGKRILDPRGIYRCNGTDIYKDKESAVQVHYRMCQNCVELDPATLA
Test: KD of scFv-Fc or IgG on cyno CD3εδ-Fc; instrument not given
pKd: −log10 of the molar value.
measure: pKd

binder	numeric readout
ADI-45967 (antibody, V domains shown, also called Ab3) VH: QVQLVQSGAEVKKPGASVKVSCKASGFNIKDYYMHWVRQAPGQRLEWIGWIDLENANTVYDAKFQGRVTIARDTSASTVYMELSSLRSEDTAVYYCARDAYGRYFYDVWGQGTLVTVSS VL: DIVMTQSPDSLAVSLGERAIINCKSSQSLLNARTGKNYLAWYQQKPGQPPKLLIYWASTRESGVPDRFSGSGSGTDFTLTISSLQAEDVAVYYCTQSYFRRTFGGGTKVEIK	8.85
ADI-45978 (antibody, V domains shown, also called Ab15) VH: QVQLVQSGAEVKKPGASVKVSCKASGFNIKDYYMHWVRQAPGQRLEWLGWIDLENANTVYDAKFQGRVTITRDTSASTAYMELSSLRSEDTAVYYCARDAYGRYFYDVWGQGTLVTVSS VL: DIVMTQSPDSLAVSLGERATINCKSSQSLLNARTGKNYLAWYQQKPGQPPKLLIYWASARESGVPDRFSGSGSGTDFTLTISSLQAEDVAVYYCTQSYFRRTFGGGTKVEIK	8.92
ADI-42596 (antibody, V domains shown, also called Ab2) VH: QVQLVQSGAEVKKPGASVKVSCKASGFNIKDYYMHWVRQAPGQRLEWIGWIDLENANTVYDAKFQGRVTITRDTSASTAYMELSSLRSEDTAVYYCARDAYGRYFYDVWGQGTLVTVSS VL: DIVMTQSPDSLAVSLGERATINCKSSQSLLNARTRKNYLAWYQQKPGQPPKLLIYWASTRESGVPDRFSGSGSGTDFTLTISSLQAEDVAVYYCKQSYFRRTFGGGTKVEIK	8.62

Taken from patent US20260209352A1.
